# Target or system: UniProtKB P36897
# Measurement protocol: TGFβ R1 autophosphorylation protocol (33P-ATP, phosphocellulose filter plate)
# Assay type: biochemical
# Run parameters: 10 uM ATP, 170 nM TGFβ R1, 20 minutes at room temperature, read-out: IC50 for Kinase Inhibition
Metric: IC50 (nM)

// known answers, use as guide
COc1cnc(-c2cc(Cl)ccc2F)nc1Nc1ccncc1C(=O)NCCn1cccc1 = 70
COc1cnc(-c2cc(Cl)ccc2F)nc1Nc1ccncc1C(=O)NCCCNCCNC(C)C = 120
COc1cnc(-c2cc(Cl)ccc2F)nc1Nc1ccncc1C(=O)NCCCNCCC1O[C@H](CO)[C@@H](O)[C@H](O)[C@@H]1O (stereo partly shown) = 10

A = COc1cnc(-c2cc(Cl)ccc2F)nc1Nc1ccncc1C(=O)NCCC(N)=O
B = COc1cnc(-c2cc(Cl)ccc2F)nc1Nc1ccncc1C(=O)NCCCNCCC1O[C@H](COCc2ccccc2)[C@@H](OCc2ccccc2)[C@H](OCc2ccccc2)[C@H]1OCc1ccccc1 (stereo partly shown)
C = COc1cnc(-c2cc(Cl)ccc2F)nc1Nc1ccncc1C(=O)NCCCNC(=O)Nc1ccc2c(c1)OCO2
D = NC(=O)c1cnccc1Nc1nc(-c2cc(Cl)ccc2F)ncc1I
Q) hey, can you rank those molecules up there by IC50? biggest number first please Please express your ranking as an ordered list of the labels.
A) B, C, A, D

---

# Target or system: UniProt P36897
# Measurement protocol: TGFβ R1 autophosphorylation protocol (33P-ATP, phosphocellulose filter plate)
# Format: biochemical
# Run parameters: 10 uM ATP, 170 nM TGFβ R1, 20 minutes at room temperature, read-out: IC50 for Kinase Inhibition
pIC50: −log10 of the molar value.
Metric: pIC50

Solved entries (count: 3):
COc1cnc(-c2cc(Cl)ccc2F)nc1Nc1ccncc1C(=O)NCCCNC(=O)C(C)C = 6.77
COc1cnc(-c2cc(Cl)ccc2F)nc1Nc1ccncc1C(=O)NC[C@H]1O[C@@H](O)[C@H](O)[C@@H](O)[C@@H]1O = 5.94
COc1cnc(-c2cc(Cl)ccc2F)nc1Nc1ccncc1C(=O)NCCNCC(F)(F)C(F)(F)F = 7.15

a = CC(C)c1cnc(-c2cc(Cl)ccc2F)nc1Nc1ccncc1C(=O)NC1(CO)CC1
b = COc1cnc(-c2cc(Cl)ccc2F)nc1Nc1ccncc1C(=O)NCCNCC(C)(C)O
Q) Given a and given b , which shows the smaller recorded pIC50? Kindly state the label of the option you pick.
A) b
(b: 7.05, a: 8.00)

I = COc1cnc(-c2cc(Cl)ccc2F)nc1Nc1ccncc1C(=O)NC1CCN(C(=O)OC(C)(C)C)C1 (stereo not shown)
II = COc1cnc(-c2cc(Cl)ccc2F)nc1Nc1ccncc1C(=O)N[C@@H]1C[C@H](C(=O)N(C)C)N(C(=O)OC(C)(C)C)C1
Q) Could you tell me which of I and II has the lower pIC50 reading? Which one? Tell me its label.
A) II
(II: 5.32, I: 6.51)

---

# Target or system: TGFβ R1 (Homo sapiens, UniProt P36897)
# Sequence (P36897 34-503): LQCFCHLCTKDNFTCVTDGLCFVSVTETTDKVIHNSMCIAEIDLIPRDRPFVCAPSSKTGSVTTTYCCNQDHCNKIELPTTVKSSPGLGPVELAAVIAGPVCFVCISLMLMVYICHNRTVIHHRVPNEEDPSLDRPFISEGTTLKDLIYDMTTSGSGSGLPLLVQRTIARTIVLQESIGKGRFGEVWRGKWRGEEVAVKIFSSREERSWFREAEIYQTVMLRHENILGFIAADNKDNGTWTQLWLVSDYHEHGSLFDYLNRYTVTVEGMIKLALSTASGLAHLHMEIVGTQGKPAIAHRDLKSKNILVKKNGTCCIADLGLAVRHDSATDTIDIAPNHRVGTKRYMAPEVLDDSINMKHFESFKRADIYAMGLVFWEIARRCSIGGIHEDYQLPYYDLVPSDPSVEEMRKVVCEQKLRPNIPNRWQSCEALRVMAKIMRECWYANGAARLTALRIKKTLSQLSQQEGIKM
# Measurement protocol: TGFβ R1 autophosphorylation protocol (33P-ATP, phosphocellulose filter plate)
# Assay type: biochemical
# Run parameters: 10 uM ATP, 170 nM TGFβ R1, room temperature 20 minutes, read-out: IC50 for Kinase Inhibition
pIC50: −log10 of the molar value.
Metric: pIC50

a = CC(C)c1cnc(-c2cc(Cl)ccc2F)nc1Nc1ccncc1C(=O)N1CCC(O)CC1 [Compound 230]
b = CCOP(=O)(OCC)OC(C)(C)CNC(=O)c1cnccc1Nc1nc(-c2cc(Cl)ccc2F)ncc1C(C)C [Compound 192]
c = CC(C)c1cnc(-c2cc(Cl)ccc2F)nc1Nc1ccncc1C(=O)NC1C[C@@H]1CO (stereo in doubt) [Compound 215]
d = CCNC(=O)[C@@H]1CCCN1CCCNC(=O)c1cnccc1Nc1nc(-c2cc(Cl)ccc2F)ncc1OC [Compound 167]
Q) Descending sort on pIC50 required. # output: labels, in the requested order
A) c, d, b, a

1 = CC(C)c1cnc(-c2cc(Cl)ccc2F)nc1Nc1ccncc1C(=O)N1CCC[C@@H](O)C1 [Compound 217]
2 = COc1cnc(-c2cc(Cl)ccc2F)nc1Nc1ccncc1C(=O)NCCNCC[C@H]1C[C@H](O)[C@@H](CO)O1 [Compound 173]
Q) Endpoint returns whichever of 1 and 2 has the numerically higher pIC50. Answer with the label corresponding to your selection.
A) 2
(2: 8.22, 1: 5.92)

---

# Target or system: TGFβ R1 (Homo sapiens)
# Measurement protocol: TGFβ R1 autophosphorylation protocol (33P-ATP, phosphocellulose filter plate)
# Type: biochemical
# Run parameters: 10 uM ATP, 170 nM TGFβ R1, 20 minutes at room temperature, read-out: IC50 for Kinase Inhibition
# Protocol: The compounds of the invention were tested for their ability to inhibit TGFβ by a TGFβ R^1 autophosphorylation protocol. This was conducted as follows: Compound dilutions and reagents were prepared fresh daily. […] The assay was performed by adding 10 ul of the enzyme to 20 ul of the compound solution. […] The plate was dried, scintillation cocktail was added to each well, and the wells were counted in a Packard TopCount microplate scintillation counter.
Metric: IC50 (nM)

COc1cnc(-c2cc(Cl)ccc2F)nc1Nc1ccncc1C(=O)NCCNCCC1O[C@H](CO)[C@@H](O)[C@H](O)[C@@H]1O (stereo partly shown) = 4

P = CNC(=O)[C@@H]1CCCN1CCCNC(=O)c1cnccc1Nc1nc(-c2cc(Cl)ccc2F)ncc1OC
Q = COc1cnc(-c2cc(Cl)ccc2F)nc1Nc1ccncc1C(=O)NCCCNC(=O)NC1CCCCC1
R = COc1cnc(-c2cc(Cl)ccc2F)nc1Nc1ccncc1C(=O)NCC(F)(F)F
Q) Arrange items by their IC50 values in increasing order. Respond with the label ranking, as requested.
A) P, R, Q

a = COc1cnc(-c2cc(Cl)ccc2F)nc1Nc1ccncc1C(=O)NCCCNCCO[C@H]1O[C@H](CO)[C@H](O)[C@H](O)[C@H]1O
b = CC(C)c1cnc(-c2cc(Cl)ccc2F)nc1Nc1ccncc1C(=O)N[C@H](C(N)=O)[C@@H](C)O
Q) Which record shows the lower IC50: the first, a , or the second, b ? Label of pick, please.
A) a

---

# Target or system: TGFβ R1 (Homo sapiens, UniProt P36897)
# Measurement protocol: TGFβ R1 autophosphorylation protocol (33P-ATP, phosphocellulose filter plate)
# Format: biochemical
# Run parameters: 10 uM ATP, 170 nM TGFβ R1, room temperature 20 minutes, read-out: IC50 for Kinase Inhibition
Metric: IC50 (nM)

CC(C)c1cnc(-c2cc(Cl)ccc2F)nc1Nc1ccncc1C(=O)N1CC[C@H](N)C1 = 68

a = COc1cnc(-c2cc(Cl)ccc2F)nc1Nc1ccncc1C(=O)NO
b = CC(C)c1cnc(-c2cc(Cl)ccc2F)nc1Nc1ccncc1C(=O)N1CCN(C)CC1
Q) # returns the entry with the larger IC50; inputs a and b Identify your pick by its label.
A) b

---

# Target or system: TGFβ R1 (Homo sapiens)
# Sequence (P36897 34-503): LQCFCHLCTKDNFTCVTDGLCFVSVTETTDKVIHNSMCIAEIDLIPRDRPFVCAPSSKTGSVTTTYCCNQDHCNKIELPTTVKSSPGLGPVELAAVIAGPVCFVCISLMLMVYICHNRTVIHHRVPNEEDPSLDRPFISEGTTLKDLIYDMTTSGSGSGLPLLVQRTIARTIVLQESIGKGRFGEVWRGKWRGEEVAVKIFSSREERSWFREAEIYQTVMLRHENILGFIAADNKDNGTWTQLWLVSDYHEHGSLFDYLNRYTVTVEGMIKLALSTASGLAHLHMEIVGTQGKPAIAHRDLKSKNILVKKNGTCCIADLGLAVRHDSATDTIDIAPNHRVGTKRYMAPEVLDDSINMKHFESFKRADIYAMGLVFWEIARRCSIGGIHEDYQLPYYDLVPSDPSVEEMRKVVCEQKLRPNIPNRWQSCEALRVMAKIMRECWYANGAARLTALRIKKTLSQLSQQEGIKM
# Measurement protocol: TGFβ R1 autophosphorylation protocol (33P-ATP, phosphocellulose filter plate)
# Assay type: biochemical
# Run parameters: 10 uM ATP, 170 nM TGFβ R1, room temperature 20 minutes, read-out: IC50 for Kinase Inhibition
Metric: IC50 (µM)

Example entries begin here.
COc1cnc(-c2cc(Cl)ccc2F)nc1Nc1ccncc1C(=O)C(=O)N(C)C [Compound 239] = 7.74
O=C(c1cnccc1Nc1nc(-c2cc(Cl)ccc2F)ncc1C1CCCC1)N1CCOCC1 [Compound 227] = 0.33
CC(=O)CNC(=O)c1cnccc1Nc1nc(-c2cc(Cl)ccc2F)ncc1C(C)C [Compound 169] = 0.003
CC(C)c1cnc(-c2cc(Cl)ccc2F)nc1Nc1ccncc1C(=O)NCCCN1CCCC1 [Compound 161] = 0.004
CC(C)c1cnc(-c2cc(Cl)ccc2F)nc1Nc1ccncc1C(=O)NCCCN1CCC[C@H]1C(=O)N1CCCC1 [Compound 190] = 0.009
CC(C)c1cnc(-c2cc(Cl)ccc2F)nc1Nc1ccncc1C(=O)NCCCN1CCCC[C@H]1C(=O)N1CCCC1 [Compound 183] = 0.021

A = O=C(c1cnccc1Nc1nc(-c2cc(Cl)ccc2F)ncc1C1CCCC1)N1CCC[C@H](O)C1 [Compound 226]
B = CC(C)c1cnc(-c2cc(Cl)ccc2F)nc1Nc1ccncc1C(=O)N1CC[C@@H](F)C1 [Compound 210]
Q) Which value of IC50 is numerically greater: that of A or that of B ? To answer, give the label that identifies your chosen option.
A) A
(A: 2.47 µM, B: 0.121 µM)

P = CC(C)c1cnc(-c2cc(Cl)ccc2F)nc1Nc1ccncc1C(=O)NC(CO)CO [Compound 193]
Q = CC(C)c1cnc(-c2cc(Cl)ccc2F)nc1Nc1ccncc1C(=O)N1CCN[C@H](C)C1 [Compound 228]
R = CC(C)c1cnc(-c2cc(Cl)ccc2F)nc1Nc1ccncc1C(=O)NC1CCN(C)CC1 [Compound 178]
S = CC(C)c1cnc(-c2cc(Cl)ccc2F)nc1Nc1ccncc1C(=O)N[C@H]1CCC[C@@H]1O (stereo in doubt) [Compound 235]
T = CN1CCN(C(=O)c2cnccc2Nc2nc(-c3cc(Cl)ccc3F)ncc2C2CCCC2)CC1 [Compound 213]
Q) Task for the reader: rank each entry by its IC50, from the minimum upward. Please list the labels according to the requested order.
A) R, P, S, Q, T
(R: 0.003 µM, P: 0.027 µM, S: 0.04 µM, Q: 2.78 µM, T: 12.9 µM)

A = COc1cnc(-c2cc(Cl)ccc2F)nc1Nc1ccncc1C(=O)N1CC[C@H](F)C1 [Compound 220]
B = COc1cnc(-c2cc(Cl)ccc2F)nc1Nc1ccncc1C(=O)NC1CC1CO (stereo not shown) [Compound 160]
Q) Compare reported IC50 values for A and B . Which is lower? Your choice should be expressed through its label.
A) B
(B: 0.009 µM, A: 0.249 µM)
